src = ChEMBL document CHEMBL4321812

Target: Serine/threonine-protein kinase TNNI3K (Homo sapiens, UniProt Q59H18)
Sequence (Q59H18 whole entry): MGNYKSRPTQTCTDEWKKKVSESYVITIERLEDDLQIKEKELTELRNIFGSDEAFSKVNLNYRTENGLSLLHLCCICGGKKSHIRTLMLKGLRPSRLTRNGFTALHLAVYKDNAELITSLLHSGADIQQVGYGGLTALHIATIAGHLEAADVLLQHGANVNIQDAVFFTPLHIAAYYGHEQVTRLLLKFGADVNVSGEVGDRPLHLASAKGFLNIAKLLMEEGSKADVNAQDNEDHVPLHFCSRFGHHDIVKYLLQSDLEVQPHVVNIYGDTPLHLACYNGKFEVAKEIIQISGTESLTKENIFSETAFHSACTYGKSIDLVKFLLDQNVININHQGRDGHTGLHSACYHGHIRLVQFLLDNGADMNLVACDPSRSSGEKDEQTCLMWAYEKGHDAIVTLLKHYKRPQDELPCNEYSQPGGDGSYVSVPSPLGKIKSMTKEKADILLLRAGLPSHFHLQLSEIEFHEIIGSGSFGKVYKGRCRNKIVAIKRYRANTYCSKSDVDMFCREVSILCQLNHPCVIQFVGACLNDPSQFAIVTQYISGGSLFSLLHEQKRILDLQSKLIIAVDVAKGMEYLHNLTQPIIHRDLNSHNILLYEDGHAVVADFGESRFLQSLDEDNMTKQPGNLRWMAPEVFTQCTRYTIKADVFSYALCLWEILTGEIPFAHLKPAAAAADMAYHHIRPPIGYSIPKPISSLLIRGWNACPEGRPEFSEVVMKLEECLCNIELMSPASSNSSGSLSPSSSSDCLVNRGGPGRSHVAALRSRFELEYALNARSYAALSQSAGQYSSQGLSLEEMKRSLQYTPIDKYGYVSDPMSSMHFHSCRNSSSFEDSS
Assay: Binding affinity to recombinant N-terminal His-FLAG-GST-tagged TNNI3K (unknown origin) (1 to 727 residues) expressed in baculovirus infected Sf9 insect cells incubated for 1 hr by TR-FRET assay
pKd: −log10 of the molar value.

| smiles_entry | pKd |
| --- | --- |
| CO[C@@H]1[C@H](NCCOCCOCCOCCNC(=O)CCC2=[N+]3C(=Cc4c(C)cc(C)n4[B-]3(F)F)C=C2)C[C@H]2O[C@]1(C)n1c3ccccc3c3c4c(c5c6ccccc6n2c5c31)C(=O)NC4 | 6.07 |
| CO[C@@H]1[C@H](N(C)CCOCCOCCOCCNC(=O)CCC2=[N+]3C(=Cc4c(C)cc(C)n4[B-]3(F)F)C=C2)C[C@H]2O[C@]1(C)n1c3ccccc3c3c4c(c5c6ccccc6n2c5c31)C(=O)NC4 | 5.92 |
